Molecular target: huCTLA4 (Homo sapiens, UniProt P16410)
Sequence (P16410 36-223): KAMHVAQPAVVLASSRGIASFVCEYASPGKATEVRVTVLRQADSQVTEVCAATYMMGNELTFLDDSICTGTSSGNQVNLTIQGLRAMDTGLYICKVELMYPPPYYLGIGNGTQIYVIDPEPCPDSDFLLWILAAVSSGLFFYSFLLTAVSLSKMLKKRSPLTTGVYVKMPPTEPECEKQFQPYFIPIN
Experiment: Flow binding to CHO cells stably expressing CTLA4
Design: huCTLA4 and huPD-L1, full-length mammalian surface expression constructs were generated; expressed in transfected cells; host or cells: CHO cells, lentiviral transduction, sorted to >98% purity
Conditions: Table E19; MFI at 33.3 nM relative to WT CD80 ECD-Fc (Abcam)
Procedure: Binding of selected immunomodulatory fusion proteins to cognate binding partners was assessed. […] Cells were sorted in a Bio-Rad S3 Cell Sorter (Bio-Rad Corp., USA) to >98% purity. […] For staining and analysis by flow cytometry, 100,000 cells of appropriate transfected cells were plated in 96-well round bottom plates. […] Cells were then washed twice with 150 μL/well stain buffer, fixed in 2% formaldehyde/PBS, and analyzed on Intellicyt flow cytometer (Intellicyt Corp., USA). […]
Consider the following molecules and their measured CTLA4 Fold change to WT CD80 readings.

MOLECULE	UNIT DESCRIPTOR	CTLA4 Fold change to WT CD80
E35D/N48K/K89N (protein) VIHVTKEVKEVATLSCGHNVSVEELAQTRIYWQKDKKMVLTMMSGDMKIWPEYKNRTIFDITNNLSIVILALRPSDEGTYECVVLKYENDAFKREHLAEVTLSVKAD	fold	0.9
E35D/N48K (protein) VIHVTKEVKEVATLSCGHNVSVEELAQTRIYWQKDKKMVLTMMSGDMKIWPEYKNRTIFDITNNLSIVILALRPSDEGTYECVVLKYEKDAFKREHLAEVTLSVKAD	fold	1.0
M47L (protein) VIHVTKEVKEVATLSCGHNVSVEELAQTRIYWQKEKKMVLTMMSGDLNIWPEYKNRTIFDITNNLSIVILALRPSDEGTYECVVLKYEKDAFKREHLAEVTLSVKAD	fold	0.8
E35D/M47V/N48K/K89N (protein) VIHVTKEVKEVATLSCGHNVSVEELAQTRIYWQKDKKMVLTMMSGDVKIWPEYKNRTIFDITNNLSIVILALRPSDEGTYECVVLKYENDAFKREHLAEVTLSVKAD	fold	1.1
M47V/N48K/V68M (protein) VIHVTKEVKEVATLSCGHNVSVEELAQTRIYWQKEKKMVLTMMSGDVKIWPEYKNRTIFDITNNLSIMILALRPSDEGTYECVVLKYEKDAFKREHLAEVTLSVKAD	fold	0.9
M47V (protein) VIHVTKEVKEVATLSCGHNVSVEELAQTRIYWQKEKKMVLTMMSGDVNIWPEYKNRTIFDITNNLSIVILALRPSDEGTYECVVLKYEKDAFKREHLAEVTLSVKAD	fold	0.8
D46V/M47L/V68M (protein) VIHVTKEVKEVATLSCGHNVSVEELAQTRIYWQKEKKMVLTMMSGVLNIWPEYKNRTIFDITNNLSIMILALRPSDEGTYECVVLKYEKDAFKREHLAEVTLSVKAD	fold	0.9
E35D/K89N (protein) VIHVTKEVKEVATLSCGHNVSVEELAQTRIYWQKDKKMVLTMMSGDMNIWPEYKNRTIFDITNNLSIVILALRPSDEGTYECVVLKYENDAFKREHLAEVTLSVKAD	fold	0.5

Attribution: patent US20220177587A1
